Values compiled from ChEMBL document CHEMBL1201862.

# Test system: Hs-578T
# experiment: NCI tumour cell line growth inhibition, 48 h
Activity calls are given as the source filed them. Cut-off read from the data, not from the text of the source: active = GI50 up to about 1.1 µM and inactive = higher.
Pick one: true (1) for active, false (0) for inactive

Known results for molecules:
molecule: Cc1cccc2c(N)c3cccc(C(=O)NCC[N+](C)(C)Cc4sccc4[N+](=O)[O-])c3nc12
class.label: true (1)

molecule: NCCN(CCN)/[N+]([O-])=N/O
class.label: false (0)

molecule: COC(=O)c1c(OC(C)=O)ccc2c1c1c(n2Cc2ccccc2)C(=O)c2ccccc2C1=O
class.label: false (0)

molecule: COc1ccc(-c2[nH]c3c4c(nc5c(c24)C(=O)CC(C)(C)C5)CC(C)(C)C3)cc1
class.label: false (0)

molecule: Cc1ccc2c3c4c(ccc13)C(C)(C)OC4=C(C(C)C)C2=O
class.label: false (0)

molecule: CC1(C)Oc2ccc3c(=O)c(-c4ccccc4)c(-c4ccccc4)oc3c2C1C(=O)O (stereo not drawn)
class.label: false (0)

molecule: O=[N+]([O-])c1ccc(N/N=C2\C=CCCC2)c([N+](=O)[O-])c1
class.label: false (0)

molecule: N#CC(NCc1cccc(CNC(C#N)c2ccccc2)c1)c1ccccc1 (stereo not drawn)
class.label: false (0)

Ask | Recorded test outcome, item Cc1cc(C)n(C2=NS(=O)(=O)c3ccccc3N2C)n1
Reply | false (0)

Ask | Recorded test outcome, item Nc1nc(N)c2c(Cl)c(CNc3ccc(Cl)c(Cl)c3)ccc2n1
Reply | false (0)

Ask | Recorded test outcome, item N#Cc1cc2c(cc1C#N)/C(=N\c1cccc(N)n1)N/C2=N\c1cccc(N)n1
Reply | false (0)

Ask | Recorded test outcome, item O=C1CCCCCCCCCCC1CN1CCCC1 (stereo not drawn)
Reply | false (0)

Ask | Recorded test outcome, item Cn1c2ccccc2c2c(-c3ccccc3)cc3c(c21)C(=O)C=CC3=O
Reply | false (0)

Ask | Recorded test outcome, item CC1(C)CCC2(C(=O)O)C(O)CC3(C)C(=CCC4C5(C)CCC(OC6OCC(O)C(O)C6OC6OCC(O)C(O)C6OC6OCC(O)C(OC7OC(CO)C(O)C(O)C7O)C6O)C(C)(C)C5CCC43C)C2C1 (stereo not drawn)
Reply | false (0)

Ask | Recorded test outcome, item CC(C)=Cc1cc(CCC/C(C)=C/Cc2c(O)cc(C)c(C(=O)O)c2O)co1
Reply | false (0)

Ask | Recorded test outcome, item COc1ccc2[nH]c(C(=O)N3CC(CCl)c4ccc(N)cc43)cc2c1 (stereo not drawn)
Reply | true (1)

Ask | Recorded test outcome, item CCO/C=N\C1=C(C#N)SC2=N/C(=C\c3ccco3)C(=O)N21
Reply | false (0)

Ask | Recorded test outcome, item CCCCc1ccc(N2C(=O)c3cc(C)cnc3S2(=O)=O)cc1
Reply | false (0)

Ask | Recorded test outcome, item CN(C)CCCNc1ccc2nnn3c4ccc(O)cc4c(=O)c1c23
Reply | false (0)

Ask | Recorded test outcome, item OCc1ccc2c(c1)CC1(C2)Cc2cc3c(cc2C1O)CCC3 (stereo not drawn)
Reply | false (0)

Ask | Recorded test outcome, item Cc1ccc(-c2cc(-c3ccc(Cl)cc3)nc(/N=C3\C(=O)N(CN4CCCCC4)c4ccc(Cl)cc43)n2)cc1
Reply | false (0)

Ask | Recorded test outcome, item O=C1CSC(c2cccc(Cl)c2)N1c1ccc(-c2ccc(-n3c(-c4ccccc4)nc4ccccc4c3=O)cc2)cc1 (stereo not drawn)
Reply | false (0)

Ask | Recorded test outcome, item CNC(=O)OCc1c2ccncc2c(C)c2c1[nH]c1ccccc12
Reply | true (1)
